# Assay Procedure: Solubility in water and bio-relevant media at 37° C. (HPLC of filtrate, pH of filtrate, XRPD of filter cake)
# Assay type: physicochemical
# Particulars: pH of the filtrate, Water, 0.5 h
So I've got a bunch of molecules here, and I need their PH 0.5 h values.
// keep it numeric: no unit symbol after the value

What PH 0.5 h value was documented for this molecule, Cc1nn(-c2cc(Cl)c(Oc3cc(C(C)C)c(=O)[nH]n3)c(Cl)c2)c(=O)[n-]c1=O.[K+] [Potassium salt Form 2] ?
10.49

What do we get for Cc1nn(-c2cc(Cl)c(Oc3cc(C(C)C)c(=O)[nH]n3)c(Cl)c2)c(=O)[n-]c1=O.[K+] [Potassium salt Form 1] ?
11.02

What do we get for Cc1nn(-c2cc(Cl)c(Oc3cc(C(C)C)c(=O)[nH]n3)c(Cl)c2)c(=O)[n-]c1=O.[Na+] [Sodium salt Form A] ?
10.76

What do we get for Cc1nn(-c2cc(Cl)c(Oc3cc(C(C)C)c(=O)[nH]n3)c(Cl)c2)c(=O)[nH]c1=O [Free acid Form I] ?
6.48

----------
# Assay Procedure: Solubility in water and bio-relevant media at 37° C. (HPLC of filtrate, pH of filtrate, XRPD of filter cake)
# Assay type: physicochemical
# Particulars: SIF, 37° C., 0.5 h; LOQ is 0.5 μg/mL
Reported Metric: Solubility (mg/mL) 0.5 h

What Solubility (mg/mL) 0.5 h value was documented for this molecule, Cc1nn(-c2cc(Cl)c(Oc3cc(C(C)C)c(=O)[nH]n3)c(Cl)c2)c(=O)[n-]c1=O.[K+] [Potassium salt Form 1] ?
<LOQ

What do we get for Cc1nn(-c2cc(Cl)c(Oc3cc(C(C)C)c(=O)[nH]n3)c(Cl)c2)c(=O)[n-]c1=O.[K+] [Potassium salt Form 2] ?
<LOQ

What do we get for Cc1nn(-c2cc(Cl)c(Oc3cc(C(C)C)c(=O)[nH]n3)c(Cl)c2)c(=O)[nH]c1=O [Free acid Form I] ?
<LOQ

What do we get for Cc1nn(-c2cc(Cl)c(Oc3cc(C(C)C)c(=O)[nH]n3)c(Cl)c2)c(=O)[n-]c1=O.[Na+] [Sodium salt Form A] ?
<LOQ

All figures here come from patent US12715858B2.
